Values compiled from patent US20240336686A1.

biological target: Human SIRPα v1 (human) (UniProt P78324); assay: SPR (Biacore), 1:1 binding model
Sequence (P78324 31-370): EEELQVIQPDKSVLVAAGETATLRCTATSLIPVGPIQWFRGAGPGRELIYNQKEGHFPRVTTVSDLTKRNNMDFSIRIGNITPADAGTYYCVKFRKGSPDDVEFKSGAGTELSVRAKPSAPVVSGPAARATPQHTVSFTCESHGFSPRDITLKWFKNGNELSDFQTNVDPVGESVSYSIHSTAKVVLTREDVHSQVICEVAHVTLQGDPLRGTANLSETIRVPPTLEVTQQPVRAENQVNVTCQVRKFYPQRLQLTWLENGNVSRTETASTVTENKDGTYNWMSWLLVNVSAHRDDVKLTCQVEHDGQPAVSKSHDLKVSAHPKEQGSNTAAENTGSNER
Reported Metric: pKd
Interpret pKd as the negative base-10 log of the concentration measured in mol/L.

stdin: Which pKd reading was recorded for the binder Anti-SIRPα antibody C25 (antibody, V domains shown) VH: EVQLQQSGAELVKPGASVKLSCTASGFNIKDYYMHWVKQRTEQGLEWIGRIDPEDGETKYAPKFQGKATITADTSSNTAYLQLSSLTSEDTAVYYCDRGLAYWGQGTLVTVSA VL: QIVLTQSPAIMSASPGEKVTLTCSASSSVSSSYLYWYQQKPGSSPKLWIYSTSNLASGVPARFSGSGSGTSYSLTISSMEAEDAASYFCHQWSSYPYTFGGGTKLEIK ?
stdout: 8.82
